system: DIGSA (large crabgrass); test: Pre-plant incorporated (PPI) herbicidal activity, warm season; format: in vivo, Digitaria sanguinalis; details: pre-plant incorporated; lowest tested rate with 80% or greater inhibition; about 14 days
// reported PPI activity GR80, DIGSA per item
quantity: PPI activity GR80, DIGSA (g/ha)

>>> print(df.to_string())
                              record_smiles  quantitative_result
0  CCN(CC)C(=O)n1cnc(S(=O)(=O)C(F)(F)C(=O)c2ccccc2)n1                  100
1  CCN(CC)C(=O)n1cnc(S(=O)(=O)C(F)(F)SCCOC)n1                   30
2       CCN(CC)C(=O)n1cnc(S(=O)(=O)C(F)F)n1                  100
3  CCSC(F)(F)S(=O)(=O)c1ncn(C(=O)N(CC)CC)n1                   30
4  C=C(C)CC(F)(F)S(=O)(=O)c1ncn(C(=O)N(CC)CC)n1                   30

Where do these numbers come from? They come from patent US6461997B1.
